- Test system: aerobic microorganisms (total germ count)
- Method notes: quantitative suspension assay, total germ count; note: test concentration or dose not given here
- Assay type: cell-based
- Settings: 15 min exp. time; control 10^8/ml
Measured total germ count, listed per entry.
Reported endpoint: total germ count

* OCc1ccccc1 | 10^7 /ml
* CC(O)C(=O)O (stereo not shown) | 10^7 /ml
* CC(O)CO (stereo not shown) | 10^9 /ml
* OCC(O)CO | 10^8 /ml

----------
- System: yeasts
- Method notes: quantitative suspension assay, yeasts; note: test concentration or dose not given here
- Type: cell-based
- Settings: 15 min exp. time; control 10^5/ml
Reported endpoint: yeasts germ count

- CC(O)C(=O)O (stereo not shown): 10^5 /ml
- CC(O)CO (stereo not shown): 10^5 /ml
- OCC(O)CO: 10^5 /ml
- OCc1ccccc1: 10^4 /ml

Ref: patent US20020176882A1
